- subject of test: T1, cynoSIRPα (XP_015313155), Extracellular Domain + His-Tag (cynomolgus monkey)
- T1 construct: also called CySIRPα XP_015313155; not shown: His-Tag
- T1 chain: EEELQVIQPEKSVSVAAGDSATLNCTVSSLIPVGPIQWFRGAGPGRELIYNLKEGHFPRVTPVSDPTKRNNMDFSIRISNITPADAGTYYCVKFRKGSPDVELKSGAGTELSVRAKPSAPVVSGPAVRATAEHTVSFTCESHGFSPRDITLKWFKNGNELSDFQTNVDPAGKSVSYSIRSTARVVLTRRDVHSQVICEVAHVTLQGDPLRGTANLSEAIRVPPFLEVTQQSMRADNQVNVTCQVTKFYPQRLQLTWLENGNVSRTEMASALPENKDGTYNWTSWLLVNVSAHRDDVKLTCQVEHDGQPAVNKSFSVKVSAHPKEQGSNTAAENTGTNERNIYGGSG
- experiment notes: SPR, antibody captured on Protein A/G, ECD-His analyte, 1:1 fit
- Method: The binding kinetics of anti-SIRPα antibodies to various SIRPα analytes are determined by surface plasmon resonance (SPR) using a Biacore 8K+(Cytiva). 1×HBS-EP+(Cytiva) is used as running buffer and for all the dilutions unless stated otherwise. […]
result type: kon (M⁻¹ s⁻¹)
Numbers only; they are read as M⁻¹ s⁻¹.

>>> test_value("Antibody E12 (antibody, human IgG1, kappa, L234A L235A, V domains shown) VH: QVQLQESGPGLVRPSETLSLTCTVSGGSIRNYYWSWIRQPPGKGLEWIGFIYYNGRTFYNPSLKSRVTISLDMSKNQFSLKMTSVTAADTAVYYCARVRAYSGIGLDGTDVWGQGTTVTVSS VL: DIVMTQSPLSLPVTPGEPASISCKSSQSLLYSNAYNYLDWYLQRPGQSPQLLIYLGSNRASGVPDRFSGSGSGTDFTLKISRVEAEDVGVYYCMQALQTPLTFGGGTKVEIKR")
297000

Query (binder): Antibody E14 (antibody, human IgG1, kappa, L234A L235A, V domains shown) VH: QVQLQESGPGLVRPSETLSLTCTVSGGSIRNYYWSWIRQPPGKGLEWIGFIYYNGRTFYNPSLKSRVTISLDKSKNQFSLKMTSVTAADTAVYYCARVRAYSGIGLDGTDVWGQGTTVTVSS VL: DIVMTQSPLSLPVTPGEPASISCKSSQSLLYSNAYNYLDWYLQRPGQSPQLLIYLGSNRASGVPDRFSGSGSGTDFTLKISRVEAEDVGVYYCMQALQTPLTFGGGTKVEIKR ; field requested: kon
200000

Query (binder): Antibody E15 (antibody, human IgG1, kappa, L234A L235A, V domains shown) VH: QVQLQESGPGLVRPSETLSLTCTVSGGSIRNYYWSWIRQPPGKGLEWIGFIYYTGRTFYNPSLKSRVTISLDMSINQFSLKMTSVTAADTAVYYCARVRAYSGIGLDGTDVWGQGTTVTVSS VL: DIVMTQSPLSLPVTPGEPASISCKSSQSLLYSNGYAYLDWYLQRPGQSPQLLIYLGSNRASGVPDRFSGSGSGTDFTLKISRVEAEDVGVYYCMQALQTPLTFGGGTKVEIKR ; field requested: kon
245000
